Data origin, for the record: paper PMC11191600

# ASSAY_SYSTEM: Human recombinant dopamine D2L receptor (Homo sapiens, UniProt P14416)
# Sequence (P14416 whole entry): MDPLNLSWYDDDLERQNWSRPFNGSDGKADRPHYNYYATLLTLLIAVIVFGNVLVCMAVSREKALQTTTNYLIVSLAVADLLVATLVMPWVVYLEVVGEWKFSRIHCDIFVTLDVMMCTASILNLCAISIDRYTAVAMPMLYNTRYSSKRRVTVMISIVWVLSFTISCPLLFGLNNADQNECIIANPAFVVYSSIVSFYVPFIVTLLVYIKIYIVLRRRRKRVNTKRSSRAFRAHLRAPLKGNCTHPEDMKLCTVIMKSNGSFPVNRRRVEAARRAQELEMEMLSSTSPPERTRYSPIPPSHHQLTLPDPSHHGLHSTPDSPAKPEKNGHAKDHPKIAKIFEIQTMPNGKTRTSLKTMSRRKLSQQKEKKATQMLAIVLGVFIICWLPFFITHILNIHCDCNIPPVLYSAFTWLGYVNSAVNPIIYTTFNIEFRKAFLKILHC
# PROTOCOL_NOTES: Human dopamine D2L receptor radioligand binding assay (Eurofins)
# CONDITION_SUMMARY: 10 μM; [3H]Spiperone binding; Eurofins Discovery
QUANTITY_MEASURED: % Inhibition at 10 μM D2L (%)

Sample answers from the record:
ITEM_SMILES	% Inhibition at 10 μM D2L / %
Cc1ccc(C(=O)N2CC3(CCN(Cc4c[nH]c5cc(F)ccc45)CC3)C2)cc1	20
Cc1ccc(C(=O)N2CC3(CCN(Cc4ccc(Cl)c(Cl)c4)CC3)C2)cc1C	24
Cc1ccc(C(=O)N2CC3(CCN(Cc4c[nH]c5cc(F)ccc45)CC3)C2)cc1C	24

(1) O=C(c1ccc2c(c1)OCO2)N1CC2(CCN(Cc3c[nH]c4cc(F)ccc34)CC2)C1
(2) Cc1ccc(C(=O)N2CC3(CCN(Cc4ccc(F)c(F)c4)CC3)C2)cc1C
# input Param metric = % Inhibition at 10 μM D2L; output whichever of 1 , 2 has the minimum value. Returns: label corresponding to the selected item.
# output 2

(A) Cc1cccc(C(=O)N2CC3(CCN(Cc4c[nH]c5cc(F)ccc45)CC3)C2)c1
(B) Cc1ccccc1C(=O)N1CC2(CCN(Cc3c[nH]c4cc(F)ccc34)CC2)C1
# input Hi, I'm comparing A with B and wondering which one has the bigger number for % Inhibition at 10 μM D2L. Any idea? Returns: label corresponding to the selected item.
# output A
(A: 18%, B: −7%)
